Target: human recombinant Met kinase (Homo sapiens, UniProt P08581)
Construct: purchased Cell Signalling Technology, Beverly, Mass
Sequence (P08581 25-1390): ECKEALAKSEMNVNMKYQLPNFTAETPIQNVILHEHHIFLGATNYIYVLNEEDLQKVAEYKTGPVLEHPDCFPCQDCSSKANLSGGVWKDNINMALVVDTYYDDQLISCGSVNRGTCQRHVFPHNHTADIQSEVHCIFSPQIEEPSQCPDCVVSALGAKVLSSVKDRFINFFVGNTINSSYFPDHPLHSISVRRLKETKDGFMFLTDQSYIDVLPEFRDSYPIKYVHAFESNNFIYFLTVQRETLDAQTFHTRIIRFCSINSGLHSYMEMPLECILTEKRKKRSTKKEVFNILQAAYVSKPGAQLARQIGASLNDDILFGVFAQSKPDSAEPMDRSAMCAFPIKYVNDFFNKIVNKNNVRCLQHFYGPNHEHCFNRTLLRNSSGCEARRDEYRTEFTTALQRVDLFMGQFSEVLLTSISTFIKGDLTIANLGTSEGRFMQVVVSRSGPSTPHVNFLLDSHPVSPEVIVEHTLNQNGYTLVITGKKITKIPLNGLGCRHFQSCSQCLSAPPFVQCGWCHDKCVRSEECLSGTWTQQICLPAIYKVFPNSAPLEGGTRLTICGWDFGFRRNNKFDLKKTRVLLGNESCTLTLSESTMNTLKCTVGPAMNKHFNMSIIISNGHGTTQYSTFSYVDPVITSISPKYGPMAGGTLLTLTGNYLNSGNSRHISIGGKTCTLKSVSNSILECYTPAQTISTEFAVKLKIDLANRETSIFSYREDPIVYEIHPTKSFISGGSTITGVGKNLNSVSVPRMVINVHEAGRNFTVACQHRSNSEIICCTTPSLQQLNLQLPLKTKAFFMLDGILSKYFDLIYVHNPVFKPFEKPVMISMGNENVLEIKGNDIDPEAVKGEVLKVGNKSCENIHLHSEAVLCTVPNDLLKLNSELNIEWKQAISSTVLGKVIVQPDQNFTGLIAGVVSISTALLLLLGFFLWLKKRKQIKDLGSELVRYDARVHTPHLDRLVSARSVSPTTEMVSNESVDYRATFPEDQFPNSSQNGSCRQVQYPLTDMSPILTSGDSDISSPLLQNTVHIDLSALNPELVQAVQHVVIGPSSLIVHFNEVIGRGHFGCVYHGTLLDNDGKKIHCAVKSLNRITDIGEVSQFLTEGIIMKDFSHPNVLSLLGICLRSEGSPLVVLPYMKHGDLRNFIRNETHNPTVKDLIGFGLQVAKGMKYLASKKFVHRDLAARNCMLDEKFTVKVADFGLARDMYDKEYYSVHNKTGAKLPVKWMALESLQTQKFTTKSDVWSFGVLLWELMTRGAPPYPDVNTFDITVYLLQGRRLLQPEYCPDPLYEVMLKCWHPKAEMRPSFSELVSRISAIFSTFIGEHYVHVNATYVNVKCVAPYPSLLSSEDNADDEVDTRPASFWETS
Experiment: Colorimetric determination of c-Met kinase activity (HTScan Met Kinase Assay Kit)
Type: biochemical
Conditions: Table 4A; 100 nM (cells without *); read-out: c-Met Enzyme % inhibition @ 100 nM
// inhibition at 0.1 µM lookup, one value per entry

{"columns": ["MOLECULE", "TEST TARGET", "inhibition at 0.1 µM"],
 "data": [
  ["Cc1cc(-c2ccc3nnn(Cc4ccc5ncccc5c4)c3n2)ccc1C(=O)NOC[C@@H](C)O [Example 38]", "human recombinant Met kinase (Homo sapiens, UniProt P08581)", "75 to 100%"],
  ["Cc1cc(-c2ccc3nnn(Cc4ccc5ncccc5c4)c3n2)ccc1C(=O)NOC(C)(C)CO [Example 39]", "human recombinant Met kinase (Homo sapiens, UniProt P08581)", "75 to 100%"],
  ["O=C(NOCCO)c1c(F)cc(-c2ccc3nnn(Cc4ccc5ncsc5c4)c3n2)cc1F [Example 19]", "human recombinant Met kinase (Homo sapiens, UniProt P08581)", "75 to 100%"],
  ["Cc1cc(-c2ccc3nnn(Cc4ccc5ncccc5c4)c3n2)ccc1C(=O)NOC[C@H](C)O [Example 36]", "human recombinant Met kinase (Homo sapiens, UniProt P08581)", "75 to 100%"],
  ["O=C(NOCCO)c1ccc(-c2ccc3nnn(Cc4ccc5ncsc5c4)c3n2)cc1F [Example 20]", "human recombinant Met kinase (Homo sapiens, UniProt P08581)", "75 to 100%"]
]}

What value of inhibition at 0.1 µM has been recorded for this entry: CC(C)(CO)ONC(=O)c1ccc(-c2ccc3nnn(Cc4ccc5ncccc5c4)c3n2)cc1Cl [Example 40]
75 to 100%

What value of inhibition at 0.1 µM has been recorded for this entry: O=C(NOCCO)c1ccc(-c2ccc3nnn(Cc4ccc5ncccc5c4)c3n2)cc1F [Example 10]
75 to 100%

What value of inhibition at 0.1 µM has been recorded for this entry: C[C@@H](O)CONC(=O)c1ccc(-c2ccc3nnn(Cc4ccc5ncccc5c4)c3n2)cc1Cl [Example 32]
75 to 100%

What value of inhibition at 0.1 µM has been recorded for this entry: O=C(NOCCO)c1ccc(-c2ccc3nnn(Cc4ccc5ncccc5c4)c3n2)cc1 [Example 22]
75 to 100%

What value of inhibition at 0.1 µM has been recorded for this entry: Cc1cc(-c2ccc3nnn(Cc4cc5cccnc5cc4F)c3n2)ccc1C(=O)NOCCO [Example 26]
75 to 100%

What value of inhibition at 0.1 µM has been recorded for this entry: CC(C)(O)CONC(=O)c1ccc(-c2ccc3nnn(Cc4ccc5ncccc5c4)c3n2)cc1Cl [Example 30]
75 to 100%
